B1: BTBD10 (parent)
chain: FVYENAKEGARNIRTSERVTLIVD

# Variants of: B1
# PROTOCOL DESCRIPTION: protein stability index of a GFP-peptide fusion (GPS, HEK-293T) (PSI 1-6); higher = more stable;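 further: lentivirally expressed fusions sorted by FACS into six bins by GFP to DsRed ratio, PSI derived from sequencing read proportions per bin multiplied by bin number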
# RUN CONDITIONS: c terminus: a fixed tail appended
Lab note: anything with protein stability index at or over 2 counts as y; the rest go in n.

# SEQUENCE CHAIN, ANSWER LABEL
measured = [
    ("FVYENAKEGALNIRTSERVTLIVD [R11L]", "y"),
    ("FVYENAKEGARNIRTSERVTLSVD [I22S]", "y"),
    ("FVYENAKEGARNIRTSERVTLICD [V23C]", "y"),
    ("FVYENAKEGARNIRTSECVTLIVD [R18C]", "n"),
    ("FGYENAKEGARNIRTSERVTLIVD [V2G]", "y"),
    ("FVYENAKEGAPNIRTSERVTLIVD [R11P]", "n"),
    ("FVYENAKESARNIRTSERVTLIVD [G9S]", "n"),
    ("FVYENAKEGARNIRTSERVTLIVW [D24W]", "y"),
    ("FVYENAKEGARNIRTSGRVTLIVD [E17G]", "y"),
    ("FVYENAKEGARNIRTSERVTLIGD [V23G]", "y"),
    ("FVYENAKEGHRNIRTSERVTLIVD [A10H]", "n"),
    ("FVQENAKEGARNIRTSERVTLIVD [Y3Q]", "y"),
    ("FVYENAKEGARNIRTSERVTCIVD [L21C]", "y"),
    ("FVYENAKEGARNIRTSNRVTLIVD [E17N]", "y"),
    ("LVYENAKEGARNIRTSERVTLIVD [F1L]", "y"),
    ("FVYEKAKEGARNIRTSERVTLIVD [N5K]", "n"),
    ("FVYENAKRGARNIRTSERVTLIVD [E8R]", "y"),
    ("FVYENAKEGAKNIRTSERVTLIVD [R11K]", "n"),
]
